system: SK-OV-3 cells; assay: Combined use of compound 257 or AMG650 with PLK1 inhibitor on SK-OV-3 cell viability, 168 h (Biological Example 21); assay type: cell-based; details: Homo sapiens, SK-OV-3, 168 h, SK-OV-3 cells, 168 h, Volasertib 3.13 nM; read-out: IC50
pIC50: −log10 of the molar value.
measuredAttribute: pIC50

>>> numericvalue("COc1ccc(NC(=O)c2ccc(NS(=O)(=O)CCO)cc2N2CCC3(CC2)CC3)nc1N1CCC(F)(F)CC1 [Compound 257]")
7.89

----------
tested on: HT29 cells; assay: Combined use of compound 257 with Aurora B inhibitor on HT29 cell viability, 72 h (Biological Example 11); assay type: cell-based; settings: Homo sapiens, HT-29, 72 h, HT29 cells, SP-96 20 nM
measuredAttribute: IC50 (nM)

>>> numericvalue("COc1ccc(NC(=O)c2ccc(NS(=O)(=O)CCO)cc2N2CCC3(CC2)CC3)nc1N1CCC(F)(F)CC1")
16.1

----------
Tested on: SK-OV-3 cells
Experiment: Combined use of compound 257 or AMG650 with PLK1 inhibitor on SK-OV-3 cell viability, 168 h (Biological Example 21)
Format: cell-based
Conditions: Homo sapiens, SK-OV-3, 168 h, SK-OV-3 cells, 168 h, Volasertib 50 nM; read-out: IC50
Method: SK—OV-3 cells were seeded on a 384-well plate at 3000 cells/well. After overnight adherence culture, DMSO or compound 257 or AMG650 serially diluted in a 1:5 ratio from 400 nM and a PLK1 inhibitor with a specified concentration were added. The cell viability was assessed 168 h after dosing by measuring the intracellular ATP content. […] Furthermore, interactions between the drugs were also analyzed using the BLISS independence model, and the results are shown in FIG. 11 and FIG. 12.
pIC50: −log10 of the molar value.
measuredAttribute: pIC50

>>> numericvalue("Cc1cc(NC(=O)c2ccc(NS(=O)(=O)CCO)cc2N2CCC3(CC2)CC3)nc(N2CCC(F)(F)CC2)n1 [AMG650]")
7.95
>>> numericvalue("COc1ccc(NC(=O)c2ccc(NS(=O)(=O)CCO)cc2N2CCC3(CC2)CC3)nc1N1CCC(F)(F)CC1 [Compound 257]")
8.70

----------
system: HCT116 cells; assay: Combined use of compound 257 with PLK1 inhibitor (CYC140, TAK-960) on HCT116 cell viability, 168 h (Biological Example 10); format: cell-based; conditions: HCT116 cells, CYC140 (Plogosertib) 1.6 nM
measuredAttribute: IC50

>>> result("COc1ccc(NC(=O)c2ccc(NS(=O)(=O)CCO)cc2N2CCC3(CC2)CC3)nc1N1CCC(F)(F)CC1 [Compound 257]")
"> 400 nM"

----------
Test system: HT29 cells
Experiment: Combined use of compound 257 with PLK1 inhibitor on HT29 cell viability, 72 h (Biological Example 5)
Assay type: cell-based
Conditions: Homo sapiens, HT-29, 72 h, HT29 cells, MLN0905 25 nM
Experimental: HT29 cells were seeded on a 384-well plate at 3000 cells/well. After overnight adherence culture, DMSO or compound 257 serially diluted in a 1:5 ratio from 5 μM and a PLK1 inhibitor with a specified concentration were added. The cell viability was assessed 72 h after dosing by measuring the intracellular ATP content. The inhibition percentages of viable cells by the compounds were calculated by comparing with the DMSO group, and the IC50 values were also calculated.
pIC50: −log10 of the molar value.
measuredAttribute: pIC50

>>> numericvalue("COc1ccc(NC(=O)c2ccc(NS(=O)(=O)CCO)cc2N2CCC3(CC2)CC3)nc1N1CCC(F)(F)CC1 [Compound 257]")
9.30
